Measured EC50 of individual entries
System: Plasmodium falciparum
experimental protocol: ST_JUDE: Plasmodium falciparum 3D7 EC50 (uM) as measured by SYBR green dye
Type: functional, organism-based

Example cases with answers are listed next.
INSERT INTO measurements (compound, assayed_target, reported_result) VALUES
  ('COc1ccc(C(NC(=O)c2cccnc2)c2cc(Cl)c3cccnc3c2O)cc1OC (stereo not given)', 'Plasmodium falciparum', '> 15 µM'),
  ('CC(=O)N(C1=C(N2CCOCC2)C(=O)c2ccccc2C1=O)c1ccc(C(=O)O)cc1', 'Plasmodium falciparum', '> 15 µM'),
  ('O=[N+]([O-])c1cc(C(F)(F)F)ccc1NCCCNS(=O)(=O)c1ccc(Cl)cc1', 'Plasmodium falciparum', '> 15 µM');

Input line: If you can, please state the reported EC50 value of COc1ccc(NC(=O)Cn2ncc3c(=O)oc4ccc(C)cc4c32)cc1 .
Output line: > 15 µM

Input line: If you can, please state the reported EC50 value of CCCSc1nnc(Cn2c(=O)sc3ccccc32)n1C .
Output line: > 15 µM

Input line: If you can, please state the reported EC50 value of CSc1cccc(NC(=O)Cn2c(=O)sc3ccccc32)c1 .
Output line: > 15 µM

Input line: If you can, please state the reported EC50 value of CCCc1cc(O)nc(-n2nc(C)cc2NC(=O)c2ccc(C(C)(C)C)cc2)n1 .
Output line: > 15 µM

Input line: If you can, please state the reported EC50 value of CSc1nc(N)c2c(n1)N=C1CC(C)(C)CC(O)=C1C2c1cccs1 (stereo not given) .
Output line: > 15 µM

Input line: If you can, please state the reported EC50 value of CC(Sc1ccc(Cl)cc1)C(=O)Nc1ccc(Br)cc1F (stereo not given) .
Output line: > 15 µM

Input line: If you can, please state the reported EC50 value of CCCCc1ccc2nc(C)c(CN(C)C3CCN(C)CC3)c(O)c2c1 .
Output line: > 15 µM
